System: Klebsiella pneumoniae PCI 602
Assay: MIC by agar-dilution method, Klebsiella pneumoniae PCI 602
Type: cell-based
Settings: PCI602, read-out: MIC.
Where a name gives a salt, the structure may show the parent alone.
Value kind: MIC (µg/mL)

Worked set:
CO/N=C(\C(=O)NC1C(=O)N2C(C(=O)O)=C(/C=C\c3scnc3Cl)CSC12)c1csc(N)n1 (stereo not shown) [Example 21, sodium salt] | 0.1
CO/N=C(\C(=O)NC1C(=O)N2C(C(=O)O)=C(/C=C\c3cncs3)CSC12)c1csc(N)n1 (stereo not shown) | 0.2
CO/N=C(\C(=O)NC1C(=O)N2C(C(=O)O)=C(/C=C\c3cnc(C)s3)CSC12)c1csc(N)n1 (stereo not shown) | 1.56
CO/N=C(\C(=O)NC1C(=O)N2C(C(=O)O)=C(C=Cc3sc[n+](C)c3C)CSC12)c1csc(N)n1 (stereo not shown) | 0.1
CO/N=C(\C(=O)NC1C(=O)N2C(C(=O)O)=C(/C=C\c3ccccc3)CSC12)c1csc(N)n1 (stereo not shown) | 3.13

1 = CO/N=C(\C(=O)NC1C(=O)N2C(C(=O)O)=C(/C=C\c3sc(Cl)nc3Cl)CSC12)c1csc(N)n1 (stereo not shown)
2 = CO/N=C(\C(=O)NC1C(=O)N2C(C(=O)O)=C(/C=C\c3ccco3)CSC12)c1csc(N)n1 (stereo not shown)
Lab note: record which item had the higher MIC, 1 or 2 . # respond with the chosen item's label 1
(1: 3.13 µg/mL, 2: 1.56 µg/mL)

The origin of these recorded values is patent US4839350A.
